Species: Rattus norvegicus
PROCEDURE SUMMARY: Open TG-GATES - Regimen: Single
Type: toxicity, organism-based, Sprague-Dawley
Parameters: regimen Single, gender Male, age 6 weeks
EXPERIMENTAL PARAMETERS: in vivo, po, 0 mg/kg, 9 h, tissue Plasma, route gavage, dose level Control

{"COMPOUND": "CCc1oc2ccccc2c1C(=O)c1cc(I)c(O)c(I)c1 [BENZIODARONE]", "READING UNIT": "mg/dL", "TC": 71.2}
{"COMPOUND": "CCC(C)(C)C(=O)O[C@H]1C[C@@H](C)C=C2C=C[C@H](C)[C@H](CC[C@@H]3C[C@@H](O)CC(=O)O3)[C@H]21 [SIMVASTATIN]", "READING UNIT": "mg/dL", "TC": 61.8}
{"COMPOUND": "CC(=O)Oc1cc(C(C)C)c(OCCN(C)C)cc1C [MOXISYLYTE]", "READING UNIT": "mg/dL", "TC": 71.8}
{"COMPOUND": "CCSCC[C@H](N)C(=O)O [ETHIONINE]", "READING UNIT": "mg/dL", "TC": 79.6}
{"COMPOUND": "Oc1ncnc2[nH]ncc12 [ALLOPURINOL]", "READING UNIT": "mg/dL", "TC": 73}
{"COMPOUND": "Nc1nc(N)c2nc(-c3ccccc3)c(N)nc2n1", "READING UNIT": "mg/dL", "TC": 74}
{"COMPOUND": "O=C(N[C@H](CO)[C@H](O)c1ccc([N+](=O)[O-])cc1)C(Cl)Cl [CHLORAMPHENICOL]", "READING UNIT": "mg/dL", "TC": 81.4}
{"COMPOUND": "CCN1CCCC1CNC(=O)c1cc(S(N)(=O)=O)ccc1OC (stereo unspecified) [SULPIRIDE]", "READING UNIT": "mg/dL", "TC": 70.8}
{"COMPOUND": "C[C@]12CCC(=O)C=C1CC[C@@H]1[C@@H]2CC[C@@]2(C)[C@H]1CC[C@]2(C)O [METHYLTESTOSTERONE]", "READING UNIT": "mg/dL", "TC": 90.2}
{"COMPOUND": "CC(C)C(=O)Nc1ccc([N+](=O)[O-])c(C(F)(F)F)c1 [FLUTAMIDE]", "READING UNIT": "mg/dL", "TC": 68.6}
{"COMPOUND": "C[C@](N)(Cc1ccc(O)c(O)c1)C(=O)O [METHYLDOPA]", "READING UNIT": "mg/dL", "TC": 74.4}
{"COMPOUND": "CC(C)(S)[C@@H](N)C(=O)O [PENICILLAMINE]", "READING UNIT": "mg/dL", "TC": 82}
{"COMPOUND": "CN1C(=O)OC(C)(C)C1=O [TRIMETHADIONE]", "READING UNIT": "mg/dL", "TC": 72.8}
{"COMPOUND": "CC(=N)S [THIOACETAMIDE]", "READING UNIT": "mg/dL", "TC": 71.8}
{"COMPOUND": "O=C(O)c1cccnc1 [NIACIN]", "READING UNIT": "mg/dL", "TC": 74.4}
{"COMPOUND": "C#C[C@]1(O)CC[C@H]2[C@@H]3CCc4cc(O)ccc4[C@H]3CC[C@@]21C [ETHINYL ESTRADIOL]", "READING UNIT": "mg/dL", "TC": 77}
